Assay: in vivo
Design: species or system mice
Conditions: male, NODSCID 1L2RγKO, mouse, iv, total radioactivity, Tail uptake

compound | uom | tissue uptake at 4 h
COc1ccc(CCCC(=O)NCC(=O)N[C@@H](CCCCNC(=O)CN2CCN(CC(=O)O)CCN(CC(=O)O)CCN(CC(=O)O)CC2)C(=O)NC[C@H]2CC[C@H](C(=O)N[C@@H](Cc3c4ccccc4cc4ccccc34)C(=O)NCCCC[C@H](NC(=O)N[C@@H](CCCC(=O)O)C(=O)O)C(=O)O)CC2)cc1 [177Lu-HTK03170, metal not drawn] | %ID/g | 2.66
O=C(O)CCC[C@H](NC(=O)N[C@@H](CCCCNC(=O)[C@H](Cc1c2ccccc2cc2ccccc12)NC(=O)[C@H]1CC[C@H](CNC(=O)CN2CCN(CC(=O)O)CCN(CC(=O)O)CCN(CC(=O)O)CC2)CC1)C(=O)O)C(=O)O [177Lu-HTK03149, metal not drawn] | %ID/g | 0.2
